- tested.system: recombinant human catalytic domain of MMP-14 (Homo sapiens)
- Construct: 177 amino acids corresponding to Tyr89-Gly265 of mature human enzyme
- method.description: In vitro fluorescence assay of MMP-14 activity
- measurement.context: Table 1; unit inferred
pIC50: −log10 of the molar value.
So I've got a bunch of molecules here, and I need their pIC50 values.

Input line: Form field: reported pIC50 of COc1ccc(CNC(=O)[C@H](CCC(=O)O)NC(=O)c2ccc(-c3ccccc3)cc2)cc1OC [Example 8F]
Output line: ~4.60

Input line: Look up pIC50 for this molecule: O=C(O)CC[C@H](NC(=O)c1ccc(-c2ccccc2)cc1)C(=O)NCc1cccc(I)c1 [Example 8JJ]
Output line: < 3.70

Input line: # input molecule: O=C(O)CC[C@H](NC(=O)c1ccc(-c2ccccc2)cc1)C(=O)NC1CC1 [Example 8B] ; wanted: its pIC50
Output line: ~4.60

Input line: Recorded pIC50 of C=Cc1cccc(CNC(=O)[C@H](CCC(=O)O)NC(=O)c2ccc(-c3ccccc3)cc2)c1 [Example 10M] , please.
Output line: < 3.70

* * *

- tested.system: purified recombinant human Aggrecanase-2 (Ag2t-Phe628-Strep) (Homo sapiens, UniProt Q9UNA0)
- Construct: the form used is denoted as Ag2t-Phe628-Strep (MW=41,737)
- Sequence (Q9UNA0 262-628): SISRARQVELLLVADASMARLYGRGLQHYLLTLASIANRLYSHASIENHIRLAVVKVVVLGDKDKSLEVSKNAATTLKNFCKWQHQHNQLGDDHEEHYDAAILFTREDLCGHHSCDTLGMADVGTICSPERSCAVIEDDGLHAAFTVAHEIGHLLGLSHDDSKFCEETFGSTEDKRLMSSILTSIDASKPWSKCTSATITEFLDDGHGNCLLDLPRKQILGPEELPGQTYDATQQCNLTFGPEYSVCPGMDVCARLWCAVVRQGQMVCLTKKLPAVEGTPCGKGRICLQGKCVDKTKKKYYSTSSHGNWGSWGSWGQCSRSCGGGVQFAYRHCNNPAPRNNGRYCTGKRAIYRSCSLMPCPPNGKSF
- method.description: In vitro fluorescence screen for Aggrecanase-2 inhibitors
- Assay type: biochemical
- measurement.context: Table 1; read-out: Agg 2 IC50
For each record, write down the corresponding IC50.
Give the value in nM but do not write nM after it.

Input line: Fill in the blank: the reported IC50 of O=C(O)CC[C@H](NC(=O)c1ccc(-c2ccccc2)cc1)C(=O)NC1CCCC1 is ____.
Output line: 614

Input line: Which IC50 is listed for CCC(C)NC(=O)[C@H](CCC(=O)O)NC(=O)c1ccc(-c2ccccc2)cc1 (stereo partly shown) ?
Output line: 700

Input line: # query: IC50 of entry COc1cc(CNC(=O)[C@H](CCC(=O)O)NC(=O)c2ccc(-c3ccccc3)cc2)cc(OC)c1OC
Output line: 50

Input line: Data request, read-out IC50, for COc1cccc(CCNC(=O)[C@H](CCC(=O)O)NC(=O)c2ccc(-c3ccccc3)cc2)c1
Output line: 1100

* * *

- System: bovine articular cartilage treated with Interleukin 1 alpha (IL-1α)
- method.description: Bovine articular cartilage explant cultures: inhibition of degradation of proteoglycan
- Type: cell-based
- measurement.context: Table 1, second of two columns headed bovine; inhibitory effect expressed as percentage; concentration not printed
reported.endpoint: bovine (%)
Write down the numeric answer in % and omit the unit.

Input line: Which bovine is listed for CCOc1cccc(-c2ccc(C(=O)N[C@@H](CCC(=O)O)C(=O)NCc3ccccc3)cc2)c1 [Example 13D] ?
Output line: 25

Input line: Quick one: bovine of O=C(O)CC[C@H](NC(=O)c1ccc(-c2ccccc2)cc1)C(=O)NCc1cccc(I)c1 [Example 8JJ] ?
Output line: 17

Input line: Report bovine for O=C(O)CC[C@H](NC(=O)c1ccc(-c2cccs2)cc1)C(=O)NCc1ccccc1 [Example 11] please.
Output line: 52

Input line: bovine lookup needed for Cc1ccc(CNC(=O)[C@H](CCC(=O)O)NC(=O)c2ccc(-c3ccccc3)cc2)cc1C [Example 8DD] , thanks.
Output line: 50

Input line: May I ask what bovine has been recorded for CSc1ccc(CNC(=O)[C@H](CCC(=O)O)NC(=O)c2ccc(-c3ccccc3)cc2)cc1 [Example 8V] ?
Output line: 45

Input line: # bovine lookup, item O=C(O)CC[C@H](NC(=O)c1ccc(-c2ccccc2)cc1)C(=O)NCc1cccc(C(F)(F)F)c1 [Example 8GGG]
Output line: 12

Input line: Please give the measured bovine for this molecule: O=C(O)CC[C@H](NC(=O)c1ccc(-c2ccccc2)cc1)C(=O)NCc1ccc(F)c(C(F)(F)F)c1 [Example 8NNN]
Output line: 0

Input line: Which measured bovine value corresponds to C=Cc1cccc(CNC(=O)[C@H](CCC(=O)O)NC(=O)c2ccc(-c3ccccc3)cc2)c1 [Example 10M] ?
Output line: 35
